tested on: TAB113; assay: qHTS profiling for inhibitors of Plasmodium falciparum proliferation (AID 504749); note: nearly all actives have a fitted effect of over 60% in size; conditions: P. falciparum in erythrocytes, SYBR Green DNA, 72 h; series mostly up to 28.7 µM
Records with an inconclusive call do not appear. Calls of active or inactive are those of the source. Calls come from the whole dose curve; as a rule, active = well fitted inhibition curve with a large enough effect; inconclusive = small, poorly fitted or top-dose-only effect; inactive = flat fitted curve, though single readings scatter.
Could you please pick one outcome from this set? T (active), F (inactive)

*Q* State the result this test recorded for `Cc1cc(OI)c(C(C)C)cc1-c1cc(C(C)C)c(OI)cc1C` .
*A* T

*Q* State the result this test recorded for `COc1ccc2cc(CCC(C)=O)ccc2c1` .
*A* F

*Q* State the result this test recorded for `O=C(Cn1ccnc1[N+](=O)[O-])NCCO` .
*A* F

###

molecular target: Retinoic acid receptor RXR-alpha (Homo sapiens); experiment: qHTS assay for small molecule antagonists of retinoid X receptor alpha signaling (AID 588546); conditions: HEK293T RXRa-UAS-bla, beta-lactamase ratio, antagonist mode;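 note: cells stimulated with 9-cis-retinoic acid as agonist; % is set by controls: 0 for no effect and ±100 for the full control effect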
Records with an inconclusive call do not appear.
Task for the reader: assign each of the following compounds its reported max response.
Answers are plain numbers, in %.

[
  {
    "compound": "Cc1ccc(C(C)C)c(O)c1",
    "target.system": "Retinoic acid receptor RXR-alpha (Homo sapiens)",
    "max response, %": -24.5
  },
  {
    "compound": "C=CCNC(N)=S",
    "target.system": "Retinoic acid receptor RXR-alpha (Homo sapiens)",
    "max response, %": -16.9
  },
  {
    "compound": "CCCCOC(=O)c1ccc(N)cc1",
    "target.system": "Retinoic acid receptor RXR-alpha (Homo sapiens)",
    "max response, %": -25.6
  },
  {
    "compound": "CC(=O)Nc1cccc(O)c1",
    "target.system": "Retinoic acid receptor RXR-alpha (Homo sapiens)",
    "max response, %": 5.72
  },
  {
    "compound": "FC(F)(F)C(Cl)Br (stereo unspecified)",
    "target.system": "Retinoic acid receptor RXR-alpha (Homo sapiens)",
    "max response, %": -3.82
  }
]

// each listed compound needs a value for max response
1. CC(=O)Nc1ccccc1
2. COC(=O)c1ccc(O)cc1
3. CCCCCC(N)=O
4. O=C1C(c2[nH]c3ccccc3c2O)=Nc2ccccc21
5. Cc1cc(=O)[nH]c(=S)[nH]1

*A*
[-0.837, -10.5, -2.1, 9.96, 1.44]

// each listed compound needs a value for max response
1. COc1ccc(O)cc1
2. CC(=O)Nc1ccc(C(=O)O)cc1

*A*
[-8.57, 1.7]

// each listed compound needs a value for max response
1. CC1CC(OC(=O)c2ccccc2O)CC(C)(C)C1 (stereo unspecified)
2. O=C(c1ccccc1)C(O)c1ccccc1 (stereo unspecified)
3. Cc1cc(O)cc(C)c1Cl

*A*
1. 14.2
2. 0.509
3. 1.2

*Q* Data request, read-out max response, for `CC[N+](CC)(CC(=O)Nc1c(C)cccc1C)Cc1ccccc1`
*A* -2.97

###

system: CRL-7250; test: Cytotoxic Profiling of Annotated Libraries Using Quantitative High-Throughput Screening (AID 1296008); conditions: Five cell lines viability, CellTiter-Glo ATP luminescence, 48-72 h; active compounds read low; note: % is set by controls: 0 for no effect and ±100 for the full control effect; nearly all actives have a fitted effect of over 60% in size
Results filed as inconclusive are left out.
Task for the reader: assign each of the following compounds its reported max response.
Numbers only, in %.

Previously resolved entries follow.
[
  {
    "compound": "CN[C@@H]1[C@H](O)[C@H](NC)[C@H]2O[C@@]3(O)C(=O)C[C@@H](C)O[C@H]3O[C@@H]2[C@H]1O",
    "unit.string": "%",
    "max response": -3.95
  },
  {
    "compound": "COc1ccc(O)cc1",
    "unit.string": "%",
    "max response": -3.8
  },
  {
    "compound": "c1ccc2[nH]ccc2c1",
    "unit.string": "%",
    "max response": 4.59
  },
  {
    "compound": "CC[N+](CC)(CC(=O)Nc1c(C)cccc1C)Cc1ccccc1",
    "unit.string": "%",
    "max response": -0.938
  },
  {
    "compound": "CCCCCCCC(=O)OCC(O)CO (stereo not drawn)",
    "unit.string": "%",
    "max response": -18.7
  },
  {
    "compound": "OCCN1C[C@H](O)[C@@H](O)[C@H](O)[C@H]1CO",
    "unit.string": "%",
    "max response": 0.57
  },
  {
    "compound": "O=C(/C=C/c1ccc(O)c(O)c1)O[C@@H]1C[C@@](OC(=O)/C=C/c2ccc(O)c(O)c2)(C(=O)O)C[C@@H](O)[C@@H]1O",
    "unit.string": "%",
    "max response": -6.43
  },
  {
    "compound": "Cc1cccc(Nc2ccccc2C(=O)O)c1C",
    "unit.string": "%",
    "max response": 0.921
  }
]

// each listed compound needs a value for max response
1. CC(=O)Oc1cccc(O)c1
2. Cc1ccccc1N=Nc1ccc(N=Nc2c(O)ccc3ccccc23)c(C)c1
3. CC(=O)Oc1cccc(C)c1
4. CCN(CC)S(=O)(=O)c1ccc(C(=O)O)cc1
5. COc1cc(C(=O)NCCCCCC(=O)O)cc(OC)c1OC
6. C=CCNC(N)=S
7. NNC(=O)CP(=O)(c1ccccc1)c1ccccc1
8. Cc1ccc(S(=O)(=O)NC(=O)NC2CCCCCCC2)cc1

*A*
1. 2.6
2. -16.7
3. 2.1
4. -2.94
5. -1.11
6. -5.07
7. -0.948
8. -5.06
